- system tested: T1, IL-6-gp80 complex (human, UniProt P05231 28-212; P08887 20-358)
- T1 construct: Non-covalent transient heterodimer formed by mixing IL-6 and gp80
- measurement description: SPR (BIAcore 3000), His-tagged VHH captured from supernatant on Ni-NTA chip, equimolar IL-6 + gp80 (50 nM each) injected
experimental readout: koff (s⁻¹)
Give a bare numeral; the unit s⁻¹ is implied.

[[record]]
binder = "VHH6 (VHH, Camel single domain antibody expressed in Expi-HEK cells; The His tag was used for capture in Octet and in the NTA-chip SPR; also called wtVHH6; VHH6-6His; not shown: C-terminal TEV site and 6His tag (VHH6-6His)) VHH: DVQFVESGGGSVHAGGSLRLNCATSGYIYSTYCMGWFRQAPGKEREGVAHIYTNSGRTYYADSVKGRFTISQDNAKNTVYLQMNSLKPEDTAIYYCAARPSIRCASFSATEYKDWGQGTQVTVSS"
result_number = 0.00036


// koff lookup, key: VHH6 S101A (VHH, Tested as ExpiHEK supernatant; not shown: C-terminal His tag (captured on NTA chip)) VHH: DVQFVESGGGSVHAGGSLRLNCATSGYIYSTYCMGWFRQAPGKEREGVAHIYTNSGRTYYADSVKGRFTISQDNAKNTVYLQMNSLKPEDTAIYYCAARPAIRCASFSATEYKDWGQGTQVTVSS
0.00039
